- Study Target: FGFR1 (SEQ ID NO: 1, amino acids 458-765) (Homo sapiens (Human), UniProt P11362)
- Sequence (P11362 458-765): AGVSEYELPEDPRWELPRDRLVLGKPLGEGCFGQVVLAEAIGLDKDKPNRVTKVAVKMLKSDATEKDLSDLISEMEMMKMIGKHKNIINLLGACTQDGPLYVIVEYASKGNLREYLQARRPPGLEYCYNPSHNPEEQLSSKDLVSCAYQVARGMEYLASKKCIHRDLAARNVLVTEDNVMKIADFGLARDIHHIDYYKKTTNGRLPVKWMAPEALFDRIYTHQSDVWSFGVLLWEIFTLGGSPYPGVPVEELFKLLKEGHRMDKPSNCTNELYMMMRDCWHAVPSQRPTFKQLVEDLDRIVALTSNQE
- Test Method Notes: LC/MS FGFR1 kobs assay (covalent protein modification)
- Assay type: binding
- Condition Context: 500 nM FGFR1, 3 μM compound
Measured Endpoint: FGFR1 Enz kobs (min⁻¹)
The reply should contain only the number, in min⁻¹.

Per the record, "C=CC(=O)N1CC(C(=O)N2CCN(c3cnc(-c4cc(OC)c5c(C#N)cnn5c4)cn3)CC2)C1" has FGFR1 Enz kobs of 0.00277

Per the record, "C=CC(=O)Nc1ccccc1C(=O)N1CCC[C@@H](n2cc(-c3cc(OC)c4c(C#N)cnn4c3)cn2)C1" has FGFR1 Enz kobs of 0.00103

Per the record, "C=CC(=O)N1CC(C(=O)N2CCC(n3cc(-c4cc(OC)c5c(C#N)cnn5c4)cn3)CC2)C1" has FGFR1 Enz kobs of 0.00127

Per the record, "C=CC(=O)N1CC[C@H](C(=O)N2CC[C@@H](n3cc(-c4cc(OC)c5c(C#N)cnn5c4)cn3)C2)C1" has FGFR1 Enz kobs of 0.00051

Per the record, "C=CC(=O)N1CC[C@H](C(=O)N2CC(n3cc(-c4cc(OC)c5c(C#N)cnn5c4)cn3)C2)C1" has FGFR1 Enz kobs of 0.0007

Per the record, "C=CC(=O)N1CC(CN2C[C@H]3C[C@@H]2CN3c2ccc(-c3cc(OC)c4c(C#N)cnn4c3)cn2)C1" has FGFR1 Enz kobs of 0.00291

Per the record, "C=CC(=O)N1CC(C)(C(=O)N2CCC(n3ncc(-c4cc(OC)c5c(C#N)cnn5c4)c3C)CC2)C1" has FGFR1 Enz kobs of 0.00258

Per the record, "COc1cc(-c2cnn(C3CN(C(=O)C4(F)CN(C(=O)/C=C/CN(C)C)C4)C3)c2C)cn2ncc(C#N)c12" has FGFR1 Enz kobs of 0.00659

Per the record, "C=CC(=O)N1CCC(n2cc(-c3cc(OC)c4c(C#N)cnn4c3)cn2)CC1" has FGFR1 Enz kobs of 0.0002

Per the record, C=CC(=O)N1CC(C(=O)N2CCC(n3cc(-c4cc(OC)c5c(C#N)cnn5c4)cn3)CC2)C1C (centres unmarked) has FGFR1 Enz kobs of 0.00113

Per the record, "CC#CC(=O)N1CC(F)(C(=O)N2CCC(n3ncc(-c4cc(OC)c5c(C#N)cnn5c4)c3C)CC2)C1" has FGFR1 Enz kobs of 0.0008

Per the record, "C=CC(=O)N(C)c1ccc(CN2CCC(n3cc(-c4cc(OC)c5c(C#N)cnn5c4)cn3)CC2)cc1" has FGFR1 Enz kobs of 0.0034

Per the record, "C=CC(=O)N1CC[C@@H](C(=O)N2CC[C@@H](n3cc(-c4cc(OC)c5c(C#N)cnn5c4)cn3)C2)C1" has FGFR1 Enz kobs of 0.00058

Per the record, "COc1cc(-c2cnn(C3CCN(C(=O)C4CN(C(=O)/C=C/CO)C4)CC3)c2)cn2ncc(C#N)c12" has FGFR1 Enz kobs of 0.00014

Per the record, "COc1cc(-c2cnn(C3CN(CC4CN(C(=O)/C=C/CN5CCCCC5)C4)C3)c2)cn2ncc(C#N)c12" has FGFR1 Enz kobs of 0.00121

Per the record, "C=CC(=O)N1CC(F)(C(=O)N2CCC(n3cc(-c4cc(OC)c5c(C#N)cnn5c4)cn3)CC2)C1" has FGFR1 Enz kobs of 0.00447

Per the record, "C=CC(=O)N1CC(C(=O)N2C3CCC2CN(c2ccc(-c4cc(OC)c5c(C#N)cnn5c4)cn2)C3)C1" has FGFR1 Enz kobs of 0.00381

Per the record, "C=CC(=O)N1CC(C#N)(C(=O)N2CCC(n3cc(-c4cc(OC)c5c(C#N)cnn5c4)cn3)CC2)C1" has FGFR1 Enz kobs of 0.01019

Per the record, "C=CC(=O)N1CC2(CCN(C(=O)N3CCC(n4cc(-c5cc(OC)c6c(C#N)cnn6c5)cn4)CC3)C2)C1" has FGFR1 Enz kobs of 0.00124

Per the record, "COc1cc(-c2cnn(C3CCN(C(=O)C4CN(C(=O)/C=C/CN(C)C)C4)CC3)c2C)cn2ncc(C#N)c12" has FGFR1 Enz kobs of 0.00338

Per the record, "COc1cc(-c2cnn(C3CCN(C(=O)C4CN(C(=O)C#CCN(C)C)C4)CC3)c2)cn2ncc(C#N)c12" has FGFR1 Enz kobs of 0.0497

Per the record, "C=CC(=O)N1CC(C)(CN2CC(n3ncc(-c4cc(OC)c5c(C#N)cnn5c4)c3C)C2)C1" has FGFR1 Enz kobs of 0.0012

Per the record, "C=CC(=O)N(C)c1ccc(C(=O)N2CCC(n3cc(-c4cc(OC)c5c(C#N)cnn5c4)cn3)CC2)cc1" has FGFR1 Enz kobs of 0.00131

Per the record, "C=CC(=O)N1CC(C(=O)N2CCC(n3cc(-c4cc(OCC)c5c(C#N)cnn5c4)cn3)CC2)C1" has FGFR1 Enz kobs of 0.0028

Per the record, "C=CC(=O)N1CC(C(=O)N2CCN(c3ccc(-c4cc(OC)c5c(C#N)cnn5c4)cn3)CC2)C1" has FGFR1 Enz kobs of 0.00263

Per the record, "C=CC(=O)N1CC(F)(C(=O)N2CCC(n3cc(-c4cc(OC)c5c(Cl)cnn5c4)cn3)CC2)C1" has FGFR1 Enz kobs of 0.00369

Per the record, "C=CC(=O)N1CCC2(CC1)CC(C(=O)N1CCC(n3cc(-c4cc(OC)c5c(C#N)cnn5c4)cn3)CC1)C2" has FGFR1 Enz kobs of 0.00071

Per the record, "C=CC(=O)N1CC(C(=O)N2CCC(n3cc(-c4cc(OC)c5c(Cl)cnn5c4)cn3)CC2)C1" has FGFR1 Enz kobs of 0.00127

Per the record, "C=CC(=O)N1CC(CN2CCC(n3ncc(-c4cc(OC)c5c(C#N)cnn5c4)c3C)CC2)C1" has FGFR1 Enz kobs of 0.00364
